# ASSAY_SYSTEM: Tyrosine-protein kinase ABL1 (Homo sapiens) (UniProt P00519)
# Sequence (P00519 whole entry): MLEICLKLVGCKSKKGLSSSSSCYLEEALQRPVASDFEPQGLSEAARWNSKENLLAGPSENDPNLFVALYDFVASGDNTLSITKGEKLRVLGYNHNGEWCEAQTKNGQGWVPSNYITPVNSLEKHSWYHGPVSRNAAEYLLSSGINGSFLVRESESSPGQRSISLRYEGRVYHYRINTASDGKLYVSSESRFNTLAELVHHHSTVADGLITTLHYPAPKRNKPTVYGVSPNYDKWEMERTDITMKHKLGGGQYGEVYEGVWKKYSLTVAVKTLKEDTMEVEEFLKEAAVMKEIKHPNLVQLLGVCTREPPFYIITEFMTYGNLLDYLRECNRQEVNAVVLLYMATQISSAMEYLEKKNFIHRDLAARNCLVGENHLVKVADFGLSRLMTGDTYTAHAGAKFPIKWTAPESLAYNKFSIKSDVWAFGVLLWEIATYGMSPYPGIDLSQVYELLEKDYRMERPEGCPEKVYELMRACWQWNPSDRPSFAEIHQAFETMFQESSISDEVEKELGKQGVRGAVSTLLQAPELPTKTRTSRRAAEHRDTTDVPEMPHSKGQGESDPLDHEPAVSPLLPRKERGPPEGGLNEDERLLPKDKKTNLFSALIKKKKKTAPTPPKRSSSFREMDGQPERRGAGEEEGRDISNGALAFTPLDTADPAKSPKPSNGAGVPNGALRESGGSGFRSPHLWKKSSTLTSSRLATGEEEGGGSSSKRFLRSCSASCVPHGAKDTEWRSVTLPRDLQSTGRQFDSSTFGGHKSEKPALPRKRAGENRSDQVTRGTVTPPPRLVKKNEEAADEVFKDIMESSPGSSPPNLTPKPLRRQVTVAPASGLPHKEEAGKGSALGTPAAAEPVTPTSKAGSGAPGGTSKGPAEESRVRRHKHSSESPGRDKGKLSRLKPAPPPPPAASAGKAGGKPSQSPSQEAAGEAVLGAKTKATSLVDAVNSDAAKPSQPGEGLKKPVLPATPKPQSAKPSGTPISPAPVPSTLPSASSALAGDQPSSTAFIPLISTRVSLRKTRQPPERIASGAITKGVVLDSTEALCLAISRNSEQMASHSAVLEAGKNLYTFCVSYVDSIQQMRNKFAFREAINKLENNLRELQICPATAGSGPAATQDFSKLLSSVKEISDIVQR
# EXPERIMENTAL_CONDITIONS: Compound concentration 20.0 uM
# Description: Thermal Shift Assay. Domain: start/stop: S229-K512
Would you mind classing the entries by ΔTm? Ranges: lowest = under 0.2 °C, middle = from 0.2 °C up to 0.5 °C, highest = 0.5 °C and over

O=C(O)[C@@H]1CCCN(C(=O)n2cnc(-c3ccc(-c4cnc(N5CCOCC5)nc4)cc3)n2)[C@H]1c1ccccc1    lowest
O=C(O)CCNc1cc(N2CCc3ccccc3CC2)nc(-c2ccccn2)n1    lowest
Oc1nc(-c2ccc(C(F)(F)F)cc2)nc2c1CSCC2    highest
Cc1cc(/N=N/c2ccc3c(c2)CCC(=O)N3)c(N)cc1O    highest
O=C(NO)c1cccc(C(=O)NCCc2ccccc2)c1    highest
CC(=O)N[C@@H](Cc1ccc(O)cc1)C(=O)N[C@H](C(=O)N[C@@H](C)C(=O)N[C@H](C=O)CC(=O)O)C(C)C    middle
N[C@@H](CCCCNC(=O)OCc1ccc([N+](=O)[O-])cc1)C(=O)N1CCCC1    lowest
CC(C)(F)C[C@H](N[C@@H](c1ccc(-c2ccc(S(C)(=O)=O)cc2)cc1)C(F)(F)F)C(=O)NC1(C#N)CC1    middle
CCCC1O[C@@H]2C[C@H]3[C@@H]4CCC5=CC(=O)C=C[C@]5(C)[C@H]4[C@@H](O)C[C@]3(C)[C@]2(C(=O)CO)O1 (stereo partly specified)    middle
COCc1nc(C(F)(F)F)[nH]c1-c1cc(C(=O)N2CC(c3ccc(C#N)cc3)C2)c(C)cc1C    lowest
CC(=O)NCC(=O)N1CCC[C@@H]1B(O)O    middle
O=c1c2nnc(C3CCOCC3)n2cc(Br)n1CC1CCCC1    highest
COCCOCCn1nc2c(c1C)-c1c(Cl)ccc3c1c(C)c(C(=O)O)n3CCCOc1cc(cc3c(F)c(Cl)ccc13)CCc1cc(nn1C)CSC2    lowest
Cn1cc(NC(=O)c2cc(F)cc(F)c2)c(C(=O)NC2CCNCC2)n1    middle
O=C1c2ccccc2C(=O)c2oc(-c3cccnc3)nc21    highest
COc1cc(C(C)C)c2c(c1)S(=O)(=O)N(COc1cc(=O)n3cccc(OCCN4CCCCC4)c3n1)C2=O    middle
O=C(COc1ccc(-c2oc3cc(O)c(C(=O)O)cc3c2C#Cc2cccc(Cl)c2)cc1)NC1CC1    middle
COc1ccccc1C(=O)Nc1cc2c(cc1N1CCCCC1)n(C)c(=O)n2C    middle
COc1ccc(-c2ccc(-c3cn(C(=O)N4CCCCC4c4ccccc4)nn3)cc2)cc1 (stereo unspecified)    middle
NC(=O)c1cc(F)cc2c1C(=O)N(C1CCN(C3CCC(F)(F)CC3)CC1)C2    lowest

* * *

# ASSAY_SYSTEM: Cyclin-dependent kinase 2 (Homo sapiens)
# EXPERIMENTAL_CONDITIONS: Compound concentration 20.0 uM
# Description: Thermal Shift Assay. Domain: start/stop: M1-L298
Reported ΔTm by item:
MEASUREMENT_KIND: ΔTm

O=C(O)/C(S)=C/c1ccc(I)cc1    -1.16 °C
c1ccc(Cn2c(-c3ccc(OC[C@H](C4CCNCC4)n4c(-c5ccccc5)nc5ccccc54)cc3)nc3ccccc32)cc1    -1.5 °C
CC(C)N(CCCNC(=O)Nc1ccc(C(C)(C)C)cc1)C[C@H]1O[C@@H](n2ccc3c(N)ncnc32)[C@H](O)[C@@H]1O    0.52 °C
CC1(C)Cn2nc(-c3ccc(F)cn3)c(-c3ccnc4[nH]ncc34)c2CO1    0.09 °C

* * *

Each item that follows carries a reported ΔTm.
# ASSAY_SYSTEM: Aurora kinase A (Homo sapiens) (UniProt O14965)
# Sequence (O14965 whole entry): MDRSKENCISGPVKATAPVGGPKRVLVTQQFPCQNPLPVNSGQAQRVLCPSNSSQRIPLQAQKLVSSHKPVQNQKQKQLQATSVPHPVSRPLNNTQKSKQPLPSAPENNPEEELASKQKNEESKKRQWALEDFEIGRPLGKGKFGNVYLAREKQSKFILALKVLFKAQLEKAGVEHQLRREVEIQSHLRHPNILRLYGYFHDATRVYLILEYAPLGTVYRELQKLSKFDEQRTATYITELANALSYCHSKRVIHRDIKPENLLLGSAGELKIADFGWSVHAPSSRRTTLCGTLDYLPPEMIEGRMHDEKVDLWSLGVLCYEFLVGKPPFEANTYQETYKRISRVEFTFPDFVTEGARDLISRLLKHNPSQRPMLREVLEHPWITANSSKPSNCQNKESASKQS
# EXPERIMENTAL_CONDITIONS: Compound concentration 20.0 uM
# Description: Thermal Shift Assay. Domain: start/stop: E122-S403
MEASUREMENT_KIND: ΔTm (°C)

CCCOc1cc(OCCCCN(C)C)cc(Oc2cc3c(cc2NS(=O)(=O)c2ccc(OC)c(OC)c2)n(C)c(=O)n3C)c1    -0.88
CCc1c(C)nc(-c2ccc(Cl)s2)nc1Nc1ccc(CC(=O)O)cc1    -0.9
CCN(CC)c1ccc(C2=NNC(=O)C[C@H]2C)cc1[N+](=O)[O-]    -0.2

* * *

Readings of ΔTm for the listed compounds
# ASSAY_SYSTEM: Mitogen-activated protein kinase 1 (Homo sapiens)
# EXPERIMENTAL_CONDITIONS: Compound concentration 20.0 uM
# Description: Thermal Shift Assay. Domain: start/stop: M1-S360
MEASUREMENT_KIND: ΔTm (°C)

Cc1cc(C(=O)CN2CCC(O)CC2)c(C)n1-c1ccc(C#N)cc1    0.01
COc1cc(Oc2ccnc3cc(OC)c(OC)cc23)ccc1NC(=O)NC(C)c1nccs1 (stereo not given)    -9.78
CN(C(=O)CCCOc1ccc2[nH]c(=O)ccc2c1)C1CCCCC1    0.58
CC(C)N(CCCNC(=O)Nc1ccc(C(C)(C)C)cc1)C[C@H]1O[C@@H](n2ccc3c(N)ncnc32)[C@H](O)[C@@H]1O    0.01
CS(=O)(=O)c1ccc(-c2nnc(C=Cc3nnc(-c4ccc(C#N)cc4)o3)n2-c2ccccc2Cl)nc1    -0.27

* * *

Recorded ΔTm values for a group of molecules are listed next.
# ASSAY_SYSTEM: Cyclin-dependent kinase 2 (Homo sapiens)
# EXPERIMENTAL_CONDITIONS: Compound concentration 20.0 uM
MEASUREMENT_KIND: ΔTm (°C)

NC(=O)c1cnc(N[C@@H]2CCCC[C@@H]2N)nc1Nc1cccc(-n2nccn2)c1    5.92
CC(C)c1cc(C(=O)N2Cc3ccc(CN4CCN(C)CC4)cc3C2)c(O)cc1O    0.67
CC(=O)N[C@@H](Cc1ccc(O)cc1)C(=O)N[C@H](C(=O)N[C@@H](C)C(=O)N[C@@H](CC(=O)O)C(=O)COC(=O)c1c(C)cccc1C)C(C)C    0.14
CCCCCCCCCCCCC/C=C/[C@@H](O)[C@H](CO)NC(=O)CBr    -4.16
Cn1ncc(-c2nn(C)c3ncnc(N4CCC4)c23)c1-c1ccc(C(F)(F)F)cc1    -1.77
Cc1c(Nc2ccc(S(=O)(=O)N3CCN(C)CC3)cc2F)nc2ccc(-c3cnn(C4CC4)c3)cn2c1=O    0.26
CC(C)CCn1c(CN2CCN(C(=O)C3CC3)CC2)nc2c1c(=O)n(C)c(=O)n2C    0.17

* * *

# ASSAY_SYSTEM: Casein kinase I isoform delta (Homo sapiens) (UniProt P48730)
# Sequence (P48730 whole entry, looked up, canonical isoform): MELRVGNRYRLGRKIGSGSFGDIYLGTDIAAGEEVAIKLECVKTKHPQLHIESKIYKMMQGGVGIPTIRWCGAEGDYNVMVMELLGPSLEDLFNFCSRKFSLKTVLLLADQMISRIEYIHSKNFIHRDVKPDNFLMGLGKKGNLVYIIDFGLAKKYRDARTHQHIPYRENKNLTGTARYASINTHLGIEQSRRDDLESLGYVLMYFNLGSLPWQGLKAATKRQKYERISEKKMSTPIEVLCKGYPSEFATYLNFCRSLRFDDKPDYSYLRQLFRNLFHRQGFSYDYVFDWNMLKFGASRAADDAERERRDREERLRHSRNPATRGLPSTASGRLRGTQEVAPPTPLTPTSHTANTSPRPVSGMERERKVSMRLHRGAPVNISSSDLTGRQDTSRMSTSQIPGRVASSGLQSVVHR
# EXPERIMENTAL_CONDITIONS: Compound concentration 20.0 uM
# Description: Thermal Shift Assay. Domain: start/stop: M1-K294
Residues, ends and D or L forms follow the SMILES beside them.
MEASUREMENT_KIND: ΔTm (°C)

N#C[C@@H]1CCCN1C(=O)[C@@H]1CCCN1C(=O)CCCc1ccccc1    0.05
CN1CC[C@@H](Oc2ccc(F)c(-c3nc4c(o3)C(=O)c3ccccc3C4=O)c2Cl)C1    -0.29
C[C@@H](Oc1ccc(S(C)(=O)=O)cc1C(=O)N1C[C@@H]2C[C@]2(c2cc(C(F)(F)F)on2)C1)C(F)(F)F    -0.17
O=C1CCc2cc(OCCCCc3nnnn3C3CCCCC3)ccc2N1    -0.48
CN(C(=O)CCCOc1ccc2[nH]c(=O)ccc2c1)C1CCCCC1    -0.15
O=C(O)/C(S)=C/c1ccc(I)cc1    -0.16
Cc1ccc(NC2=CC(=O)c3sc(C)nc3C2=O)cc1    -0.17
CC(C)(OCc1cc(-c2cccc(OC3CC3)c2)n(-c2ccccc2Cl)n1)C(=O)O    0.08
O=[N+]([O-])c1c(Nc2cc(F)cc(Cl)c2)ccc2nonc12    -0.44
CN(Cc1ccccc1)c1ccc2cc(C(=O)O)c(=O)oc2c1    0.11
CCC(CC)N(CCN(C)C(=O)CCC(=O)O)Cc1cccc(C(=O)Nc2sc3c(c2C(=O)c2cnn(-c4ccc(Cl)c(C(F)(F)F)c4)c2)CCC(C)(C)C3)c1    -8.05
COc1cc2c(NCC3CCN(C)CC3)cc(-c3ccc(C)o3)nc2cc1OCCCN1CCCC1    0.3
Cc1nc(N)c2nnn(C[C@H]3CN(Cc4nccs4)CCO3)c2n1    -0.32
CC#CCn1c(N2CCC[C@@H](N)C2)nc2c1c(=O)n(Cc1nc(C)c3ccccc3n1)c(=O)n2C    -0.33
NC(=O)C1CN(CCCCC(c2ccc(F)cc2)c2ccc(F)cc2)CCN1CC(=O)Nc1c(Cl)cc(N)cc1Cl (stereo not given)    -5.13
O=C(N1CCCCC1c1ccccc1)n1cc(-c2ccc(-c3cccc(CO)c3)cc2)nn1 (stereo not given)    -10.5
CN1CCN(c2nc(-c3ccc(C(=O)NC4(C(=O)NCC#N)CCCCC4)cc3)cs2)CC1    -0.06
CC(=O)N[C@@H](CC(C)C)C(=O)N[C@@H](CCC(=O)O)C(=O)N[C@@H](Cc1cnc[nH]1)C(=O)N[C@H](C=O)CC(=O)O (Ac-LEHD-aldehyde)    0.09
C[C@H](c1nc2c(cnn2C2CCOCC2)c(=O)[nH]1)N1CC(Oc2ccccc2)C1    -0.29
CNCCCN1c2ccccc2CCc2ccccc21    -0.01
Cc1ncsc1-c1ccc([C@H](C)NC(=O)[C@@H]2C[C@@H](O)CN2C(=O)[C@@H](NC(=O)CNC(=O)c2ccc(F)c(-c3ccc(N4C[C@@H](C)N(C)[C@@H](C)C4)c(NC(=O)c4c[nH]c(=O)cc4C(F)(F)F)c3)c2)C(C)(C)C)cc1    0.81
COC(=O)c1ccc(CN2CCC(O)(Cn3cnc4c(-c5ccc(CN)cc5)n(C)nc4c3=O)CC2)c(Cl)c1    -0.28
O=C(O)[C@@H]1CCCN(C(=O)n2cnc(-c3ccc(-c4cnc(N5CCOCC5)nc4)cc3)n2)[C@H]1c1ccccc1    1.27
O=C(Nc1cc(C(F)F)ns1)Nc1cc(F)ncc1CO    -0.49
OC[C@H]1O[C@@H](c2ccc(Cl)c(Cc3ccc(OCCOC4CC4)cc3)c2)[C@H](O)[C@@H](O)[C@@H]1O    -1.19
CC(=O)N[C@@H](CCCCNC(=O)CSCCNC(=O)CCNC(=O)[C@H](O)C(C)(C)COP(=O)(O)OP(=O)(O)OC[C@H]1O[C@@H](n2cnc3c(N)ncnc32)[C@H](O)[C@@H]1OP(=O)(O)O)C(N)=O    -0.41
Cc1cccc(Nc2ccncc2S(=O)(=O)NC(=O)NC(C)C)c1    -0.02
CCC(=O)N[C@H]1CC[C@@H](C(=O)N(C)c2ccc(-c3nc4ccccc4o3)cc2)C1    0.1
Cc1cc(Cl)cc(-c2c3sc(CN4C(=O)C5C(C4=O)C5(C)C)cc3nn2C)c1OC1CCNCC1 (stereo not given)    -0.45
Cc1nc(-c2cnc(NC(C)C)n(C)c2=O)ccc1Oc1ccnc(-c2cnn(C)c2)c1    0.37
O=C(O)CCNc1cc(N2CCc3ccccc3CC2)nc(-c2ccccn2)n1    -0.34
C[C@H]1CO[C@@H]2Cn3cc(C(=O)NCc4ccc(F)cc4F)c(=O)c(O)c3C(=O)N12    -0.04
CC(=O)N1CCC(Nc2cc(C(=O)NC[C@H](O)CN3CCc4ccccc4C3)ncn2)CC1    0.07
CN(Cc1cc(Br)cc(Br)c1N)C1CCCCC1    -0.11
CC(C)(C)c1ccc(S(=O)(=O)NCc2ccc(C(=O)Nc3cccnc3)cc2)cc1    -0.13
